# Measured Target: photolabile unchained HLA-A*11:01 pMHC-I protein (Homo sapiens, UniProt P04439, A114D/D185E/E176A/F33Y/L180Q/S129P/T187R)
# Protocol Details: ELISA with photolabile unchained pMHC-I protein and UV irradiation
# Assay type: binding
# Measurement Setup: Table 2; 62.5 nM photolabile pMHC-I mixture, 5 μM peptide in PBS, UV 365 nm 2 × 5 min on ice, 2 h room temperature on anti-β2m plate; Abs450nm − Abs570nm; instability cutoff < 0.6
Can you tell me ELISA450nm for the items I'm about to list?
// keep it numeric: no unit symbol after the value

Tell me its ELISA450nm given TVVRRRCRSPR [putative peptide, HBV, no IEDB entry] as the entry.
0.4145

State, in one line, measured ELISA450nm of TVVGRRGRSPR [putative peptide, HBV, no IEDB entry]
1.259

Look up and state reported ELISA450nm for RTQSPRRR [reference compound]
0.3319
